assayTarget: horseradish peroxidase (HRP) tagged delF508-CFTR (Homo sapiens, UniProt P13569, DEL508-508)
Construct: expressed in transfected cells
Sequence (P13569 with tags, fused parts or gaps DEL508-508): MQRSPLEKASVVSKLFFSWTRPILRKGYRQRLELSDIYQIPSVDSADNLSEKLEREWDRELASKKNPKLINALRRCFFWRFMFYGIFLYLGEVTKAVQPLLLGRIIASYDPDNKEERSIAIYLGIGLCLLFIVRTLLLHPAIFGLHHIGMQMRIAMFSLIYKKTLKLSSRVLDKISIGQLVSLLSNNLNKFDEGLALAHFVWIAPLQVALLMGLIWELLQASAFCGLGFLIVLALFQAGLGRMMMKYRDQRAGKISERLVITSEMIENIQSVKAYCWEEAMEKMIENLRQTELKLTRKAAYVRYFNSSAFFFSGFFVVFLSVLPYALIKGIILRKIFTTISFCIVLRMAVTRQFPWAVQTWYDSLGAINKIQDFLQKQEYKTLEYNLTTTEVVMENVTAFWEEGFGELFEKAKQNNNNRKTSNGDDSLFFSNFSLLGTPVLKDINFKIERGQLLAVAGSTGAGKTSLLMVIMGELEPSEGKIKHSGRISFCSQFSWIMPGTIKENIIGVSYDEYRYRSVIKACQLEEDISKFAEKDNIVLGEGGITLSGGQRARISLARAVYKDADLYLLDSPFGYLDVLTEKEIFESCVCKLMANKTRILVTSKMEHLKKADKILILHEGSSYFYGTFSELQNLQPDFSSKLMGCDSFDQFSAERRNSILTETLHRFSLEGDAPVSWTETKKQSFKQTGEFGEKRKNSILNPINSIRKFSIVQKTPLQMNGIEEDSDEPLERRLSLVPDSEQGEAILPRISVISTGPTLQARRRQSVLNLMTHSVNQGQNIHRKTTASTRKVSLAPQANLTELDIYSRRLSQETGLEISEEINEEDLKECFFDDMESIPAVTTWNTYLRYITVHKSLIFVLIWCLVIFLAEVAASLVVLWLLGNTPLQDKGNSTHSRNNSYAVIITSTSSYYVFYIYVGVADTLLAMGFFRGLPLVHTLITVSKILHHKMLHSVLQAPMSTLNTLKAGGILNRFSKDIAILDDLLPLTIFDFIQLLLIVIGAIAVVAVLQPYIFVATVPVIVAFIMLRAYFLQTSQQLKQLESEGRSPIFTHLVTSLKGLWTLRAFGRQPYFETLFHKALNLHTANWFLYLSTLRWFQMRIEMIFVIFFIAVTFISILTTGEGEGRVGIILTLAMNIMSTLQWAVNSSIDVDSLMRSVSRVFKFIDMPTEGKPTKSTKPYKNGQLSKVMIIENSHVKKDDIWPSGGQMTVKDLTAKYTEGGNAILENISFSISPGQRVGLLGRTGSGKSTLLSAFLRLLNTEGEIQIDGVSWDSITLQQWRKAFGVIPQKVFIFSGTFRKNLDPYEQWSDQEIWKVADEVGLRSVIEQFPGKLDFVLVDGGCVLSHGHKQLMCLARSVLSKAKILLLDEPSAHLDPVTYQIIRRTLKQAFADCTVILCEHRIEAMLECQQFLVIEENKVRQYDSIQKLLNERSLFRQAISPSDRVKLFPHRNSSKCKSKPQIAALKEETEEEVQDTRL
protocolDescription: Measurement of delF508-CFTR-HRP surface expression in CFBE41o- cells
Type: cell-based
experimentalSetup: CFBE41o- cells; mean of at least two replicates; read-out: DelF508-CFTR-HRP EC50
outcomeMeasure: EC50 (nM)

* CCc1ccccc1-c1nc(NS(=O)(=O)c2cccc(N3CCC[C@@](C)(C(=O)O)C3)n2)ccc1C(F)(F)F [Example 394] | 1050

(1) CC1(C(=O)O)CCCN(c2cccc(S(=O)(=O)Nc3ccc(C(F)(F)F)c(-c4ccccc4C4CC4)n3)n2)C1 (stereo not drawn) [Example 402]
(2) Cc1ccccc1-c1nc(NS(=O)(=O)c2cccc(N[C@@H]3C[C@@]4(C(=O)O)CC[C@@H]3O4)n2)ccc1C(F)(F)F (racemic) [Example 395]
Q. # returns the entry with the larger EC50; inputs 1 and 2 Pick one and reply with its label.
A. 2

====

assayTarget: horseradish peroxidase (HRP) tagged delF508-CFTR (Homo sapiens, UniProt P13569, DEL508-508)
Construct: expressed in transfected cells
protocolDescription: Measurement of delF508-CFTR-HRP surface expression in CFBE41o- cells
Assay type: cell-based
experimentalSetup: CFBE41o- cells; mean of at least two replicates; read-out: DelF508-CFTR-HRP EC50
outcomeMeasure: EC50 (nM)

// worked examples, EC50 included
- CCCc1ccccc1-c1nc(NS(=O)(=O)c2cccc(N3CCC(C)(C(=O)O)CC3)n2)ccc1C(F)(F)F [Example 398]: 615
- Cc1c(F)cccc1-c1nc(NS(=O)(=O)c2cccc(N3CCC[C@](C)(C(=O)O)C3)n2)ccc1C(F)(F)F [Example 436]: 1770
- CCC[C@@H]1CCN(c2cccc(S(=O)(=O)Nc3ccc(Cl)c(-c4cccnc4C(C)C)n3)n2)[C@H]2C[C@H](C(=O)O)[C@@H]12 (racemic) [Example 434]: 2230
- CC1(C(=O)O)CCCN(c2cccc(S(=O)(=O)Nc3ccc(C(F)(F)F)c(-c4ccccc4Cl)n3)n2)C1 (centres unmarked) [Example 399]: 2090
- C[C@@]1(C(=O)O)CCCN(c2cccc(S(=O)(=O)Nc3cccc(-c4ccccc4C4CC4)n3)n2)C1 [Example 405]: 2480

(A) COc1ccc(Cl)c(-c2nc(NS(=O)(=O)c3cccc(N4CCCC(C)(C(=O)O)C4)n3)ccc2C(F)(F)F)c1 (centres unmarked) [Example 414]
(B) CC(C)c1ccccc1-c1nc(NS(=O)(=O)c2cccc(N3CCCC(C)(C(=O)O)C3)n2)ccc1Cl (centres unmarked) [Example 388]
Q. Could you check which of A and B has a smaller value for EC50? Please reply using the label of the selected record.
A. B

(P) COc1ccc(NS(=O)(=O)c2cccc(N3CCC[C@@](C)(C(=O)O)C3)n2)nc1-c1ccccc1C1CC1 [Example 408]
(Q) CC(C)c1ccccc1-c1nc(NS(=O)(=O)c2cccc(N3CCC[C@@](C)(C(=O)O)C3)n2)ccc1Cl [Example 392]
Q. # return whichever of P and Q has the smaller EC50 // return label of chosen record
A. Q
(Q: 527 nM, P: 1990 nM)

(I) Cc1ccc(NS(=O)(=O)c2cccc(N3CCC[C@@](C)(C(=O)O)C3)n2)nc1-c1ccccc1C1CC1 [Example 406]
(II) COc1ccc(Cl)c(-c2nc(NS(=O)(=O)c3cccc(N4CCC[C@@H](C(=O)O)C4)n3)ccc2C(F)(F)F)c1 [Example 449]
Q. For the pair I and II , which entry has the numerically smaller recorded EC50? Choose, then provide that item's label.
A. I
